- Protocol: ATG_AP_2_CIS: Attagene CIS-FACTORIAL HepG2 Assay for human Activator Protein 2 (AP-2) (AID 2282932)
- Applied conditions: HepG2 AP-2 cis-reporter, Attagene transcription factor profiling; actives raise or lower the signal
Active and inactive are the calls of the source. Rule for the calls: active = hit-call score of the fitted dose curve at least 0.9, where 1 is the maximum; inactive = score below 0.9.
Pick one: class 1 (active), class 0 (inactive)

Query: Recorded test call requested for "O=S(=O)(F)C(F)(F)C(F)(F)C(F)(F)C(F)(F)F"
Reply: class 0

Query: Recorded test call requested for "N#Cc1ccccc1Cl"
Reply: class 0

Query: Recorded test call requested for "COCCl"
Reply: class 0

Query: Recorded test call requested for "C[As+](C)(C)CC(=O)[O-]"
Reply: class 0

Query: Recorded test call requested for "C1CN2CCN1CC2"
Reply: class 0

---
Query: Recorded test call requested for "c1ccc2c(c1)Oc1ccccc1O2"
Reply: class 0

Query: Recorded test call requested for "[Cl][Sn]([c]1ccccc1)([c]1ccccc1)[c]1ccccc1"
Reply: class 1

Query: Recorded test call requested for CC(O)(CS(=O)(=O)c1ccc(F)cc1)C(=O)Nc1ccc(C#N)c(C(F)(F)F)c1 (stereo not given)
Reply: class 0

Query: Recorded test call requested for "Cc1cccc(C)c1NC(=O)CN1CCCC1=O"
Reply: class 0

Query: Recorded test call requested for "O=C1C[C@@H]2OCC=C3CN4CC[C@]56c7ccccc7N1[C@H]5[C@H]2[C@H]3C[C@H]46"
Reply: class 0

Query: Recorded test call requested for N#CCCC(Br)(C#N)CBr (stereo not given)
Reply: class 1

Query: Recorded test call requested for "O=NN1CCCCCCC1"
Reply: class 0

Query: Recorded test call requested for "O=C(NC(=O)c1c(F)cccc1F)Nc1ccc(Cl)cc1"
Reply: class 0

Query: Recorded test call requested for "O=[N+]([O-])c1ccccc1O"
Reply: class 0

Query: Recorded test call requested for CC(C)[C@H](C(=O)OC(C#N)c1cccc(Oc2ccccc2)c1)c1ccc(OC(F)F)cc1 (stereo not given in full)
Reply: class 0

Query: Recorded test call requested for "CCCCCCCCCCCCOS(=O)(=O)O"
Reply: class 0

Query: Recorded test call requested for "Clc1cccc(Cl)c1Cl"
Reply: class 0

Query: Recorded test call requested for "CCOCn1c(-c2ccc(Cl)cc2)c(C#N)c(Br)c1C(F)(F)F"
Reply: class 1

Query: Recorded test call requested for CC1CC(=O)O1 (stereo not given)
Reply: class 0

Query: Recorded test call requested for "CCOP(=S)(OCC)Oc1ccc(Cl)cc1Cl"
Reply: class 0

Query: Recorded test call requested for "CCOP(=O)(OCC)SCCSCC"
Reply: class 0

Query: Recorded test call requested for "N#Cc1ccccc1N"
Reply: class 0

Query: Recorded test call requested for "COP(=S)(OC)Oc1cc(Cl)c(I)cc1Cl"
Reply: class 1

Query: Recorded test call requested for "Nc1c(Oc2ccccc2)cc(O)c2c1C(=O)c1ccccc1C2=O"
Reply: class 0

Query: Recorded test call requested for "N#Cc1ccc(Cl)cc1"
Reply: class 0

Query: Recorded test call requested for "Cc1cc(C)cc(C)c1"
Reply: class 0

Query: Recorded test call requested for "C=C(C)[C@@H]1CC=C(C=O)CC1"
Reply: class 0

###

- Measured target: Heat shock factor protein 1 (Homo sapiens) (UniProt Q00613)
- Sequence (Q00613 whole entry, looked up): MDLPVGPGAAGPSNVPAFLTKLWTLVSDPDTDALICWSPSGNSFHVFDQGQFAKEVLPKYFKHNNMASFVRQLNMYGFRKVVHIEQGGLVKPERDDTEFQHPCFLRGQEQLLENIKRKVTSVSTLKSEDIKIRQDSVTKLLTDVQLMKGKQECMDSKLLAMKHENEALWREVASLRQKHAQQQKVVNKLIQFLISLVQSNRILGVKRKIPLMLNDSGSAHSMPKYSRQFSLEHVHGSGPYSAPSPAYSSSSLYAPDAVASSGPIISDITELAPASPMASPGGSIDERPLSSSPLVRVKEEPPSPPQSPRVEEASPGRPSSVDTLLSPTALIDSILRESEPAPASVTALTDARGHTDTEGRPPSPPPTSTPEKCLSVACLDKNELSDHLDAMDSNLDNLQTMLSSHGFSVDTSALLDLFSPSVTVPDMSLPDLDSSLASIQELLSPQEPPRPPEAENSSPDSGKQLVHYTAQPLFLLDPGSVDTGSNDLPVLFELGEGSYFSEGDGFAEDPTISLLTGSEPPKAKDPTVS
- Protocol: ATG_HSE_CIS: Attagene CIS-FACTORIAL HepG2 Assay for human Heat Shock Transcription Factor 1 (HSE) (AID 2282953)
- Applied conditions: HepG2 HSE cis-reporter, Attagene RNA transcription; actives raise or lower the signal
Calls of active or inactive are those of the source. Rule for the calls: active = hit-call score of the fitted dose curve at least 0.9, where 1 is the maximum; inactive = score below 0.9.
Value kind: outcome

Query: Read the entry "Cc1cc(Cl)ccc1OCCCC(=O)O" and write its reported outcome.
Reply: inactive

Query: Read the entry "C=C(C)C(=O)OCCCCOC(=O)C(=C)C" and write its reported outcome.
Reply: inactive

Query: Read the entry "CN(N=O)C(N)=O" and write its reported outcome.
Reply: inactive

Query: Read the entry "O=C(CCl)NCO" and write its reported outcome.
Reply: inactive
